Tested on: panel of human cell lines
protocolDescription: In vitro proliferation assay, Cell Titer Glo, two doubling times, 298 cell lines
Assay type: cell-based
setupConditions: Homo sapiens, NCI-H1703, NCI-H1703, lung; read-out: ABS_IC50_VALUE
measurementKind: IC50

{"compound": "O=c1[nH]ccc2cc(F)c(NS(=O)(=O)c3ccc(N4CC[C@@H](O)C4)s3)cc12 [LSN3213128]", "measurementKind": "IC50", "endpointResult": "> 20 µM"}

###

System: panel of human cell lines
protocolDescription: In vitro proliferation assay, Cell Titer Glo, two doubling times, 298 cell lines
Format: cell-based
setupConditions: Homo sapiens, COLO-680N, oesophagus; read-out: ABS_IC50_VALUE
pIC50: −log10 of the molar value.

{"lineNotation": "O=c1[nH]ccc2cc(F)c(NS(=O)(=O)c3ccc(N4CC[C@@H](O)C4)s3)cc12", "pIC50": 5.69}

###

Tested on: panel of human cell lines
protocolDescription: In vitro proliferation assay, Cell Titer Glo, two doubling times, 298 cell lines
Type: cell-based
setupConditions: Homo sapiens, NCI-H1793, NCI-H1793, lung; read-out: ABS_IC50_VALUE
measurementKind: IC50

{"lineNotation": "O=c1[nH]ccc2cc(F)c(NS(=O)(=O)c3ccc(N4CC[C@@H](O)C4)s3)cc12", "endpointResult": "> 20 µM"}

###

Tested on: panel of human cell lines
protocolDescription: In vitro proliferation assay, Cell Titer Glo, two doubling times, 298 cell lines
Type: cell-based
setupConditions: Homo sapiens, RKO, large intestine; read-out: ABS_IC50_VALUE
measurementKind: IC50

{"compound": "O=c1[nH]ccc2cc(F)c(NS(=O)(=O)c3ccc(N4CC[C@@H](O)C4)s3)cc12 [LSN3213128]", "measuredOn": "panel of human cell lines", "measurementKind": "IC50", "endpointResult": "8.04 µM"}

###

System: panel of human cell lines
protocolDescription: In vitro proliferation assay, Cell Titer Glo, two doubling times, 298 cell lines
Assay type: cell-based
setupConditions: Homo sapiens, F-36P, haematopoietic and lymphoid tissue; read-out: ABS_IC50_VALUE
Experimental: Cell Titer Glo measures ATP, thus the IC50s represent both the effect on purine production and cell proliferation, which are related. […] Cells were cultured using recommended culture conditions unless noted otherwise (Supplemental Table 3). Cells were plated, dosed with compound and incubated at 37 °C for approximately 2 doubling times as determined for each cell line. […]
measurementKind: IC50 (nM)

{"lineNotation": "O=c1[nH]ccc2cc(F)c(NS(=O)(=O)c3ccc(N4CC[C@@H](O)C4)s3)cc12", "measurementKind": "IC50", "unitAnnotation": "nM", "endpointResult": 790}

###

Tested on: MDA-MB-231
protocolDescription: In vitro proliferation assay, Cell Titer Glo
Format: cell-based
setupConditions: Homo sapiens; MDA-MB-231; Cell Titer Glo; two doubling times; read-out: IC50 by CTG

{"lineNotation": "O=c1[nH]ccc2cc(F)c(NS(=O)(=O)c3ccc(N4CC[C@@H](O)C4)s3)cc12", "measuredOn": "MDA-MB-231", "unitAnnotation": "nM", "IC50": 7.6}

###

Tested on: panel of human cell lines
protocolDescription: In vitro proliferation assay, Cell Titer Glo, two doubling times, 298 cell lines
Format: cell-based
setupConditions: Homo sapiens, HEC-1-A, endometrium; read-out: ABS_IC50_VALUE
pIC50: −log10 of the molar value.

{"lineNotation": "O=c1[nH]ccc2cc(F)c(NS(=O)(=O)c3ccc(N4CC[C@@H](O)C4)s3)cc12", "pIC50": 4.87}

###

Tested on: panel of human cell lines
protocolDescription: In vitro proliferation assay, Cell Titer Glo, two doubling times, 298 cell lines
Format: cell-based
setupConditions: Homo sapiens, BT-483, BT-483, breast; read-out: ABS_IC50_VALUE

{"lineNotation": "O=c1[nH]ccc2cc(F)c(NS(=O)(=O)c3ccc(N4CC[C@@H](O)C4)s3)cc12", "IC50": "> 20 µM"}

###

Tested on: panel of human cell lines
protocolDescription: In vitro proliferation assay, Cell Titer Glo, two doubling times, 298 cell lines
Assay type: cell-based
setupConditions: Homo sapiens, NCI-H1623, NCI-H1623, lung; read-out: ABS_IC50_VALUE
measurementKind: IC50

{"lineNotation": "O=c1[nH]ccc2cc(F)c(NS(=O)(=O)c3ccc(N4CC[C@@H](O)C4)s3)cc12", "measurementKind": "IC50", "endpointResult": "> 20 µM"}

###

System: panel of human cell lines
protocolDescription: In vitro proliferation assay, Cell Titer Glo, two doubling times, 298 cell lines
Format: cell-based
setupConditions: Homo sapiens, GI-1, central nervous system; read-out: ABS_IC50_VALUE
pIC50: −log10 of the molar value.

{"lineNotation": "O=c1[nH]ccc2cc(F)c(NS(=O)(=O)c3ccc(N4CC[C@@H](O)C4)s3)cc12", "pIC50": 4.81}

###

protocolDescription: Pharmacokinetic studies
Type: in vivo
setupConditions: male, CD-1, whole blood (dried blood spots); mouse; oral 10 mg/kg

{"lineNotation": "O=c1[nH]ccc2cc(F)c(NS(=O)(=O)c3ccc(N4CC[C@@H](O)C4)s3)cc12", "AUC (µM·h)": 20.2}

###

Test system: panel of human cell lines
protocolDescription: In vitro proliferation assay, Cell Titer Glo, two doubling times, 298 cell lines
Assay type: cell-based
setupConditions: Homo sapiens, 8505C, thyroid; read-out: ABS_IC50_VALUE
Experimental: Cell Titer Glo measures ATP, thus the IC50s represent both the effect on purine production and cell proliferation, which are related. […] Cells were cultured using recommended culture conditions unless noted otherwise (Supplemental Table 3). Cells were plated, dosed with compound and incubated at 37 °C for approximately 2 doubling times as determined for each cell line. […]
pIC50: −log10 of the molar value.
measurementKind: pIC50

{"lineNotation": "O=c1[nH]ccc2cc(F)c(NS(=O)(=O)c3ccc(N4CC[C@@H](O)C4)s3)cc12", "endpointResult": "< 4.70"}

###

Tested on: panel of human cell lines
protocolDescription: In vitro proliferation assay, Cell Titer Glo, two doubling times, 298 cell lines
Format: cell-based
setupConditions: Homo sapiens, SNU-387, SNU-387 (liver, pleomorphic hepatocellular carcinoma); read-out: ABS_IC50_VALUE
pIC50: −log10 of the molar value.
measurementKind: pIC50

{"lineNotation": "O=c1[nH]ccc2cc(F)c(NS(=O)(=O)c3ccc(N4CC[C@@H](O)C4)s3)cc12", "measuredOn": "panel of human cell lines", "endpointResult": 4.57}

###

Test system: panel of human cell lines
protocolDescription: In vitro proliferation assay, Cell Titer Glo, two doubling times, 298 cell lines
Assay type: cell-based
setupConditions: Homo sapiens, Daoy, central nervous system; read-out: ABS_IC50_VALUE

{"lineNotation": "O=c1[nH]ccc2cc(F)c(NS(=O)(=O)c3ccc(N4CC[C@@H](O)C4)s3)cc12", "measuredOn": "panel of human cell lines", "unitAnnotation": "nM", "IC50": 1020}

###

Test system: panel of human cell lines
protocolDescription: In vitro proliferation assay, Cell Titer Glo, two doubling times, 298 cell lines
Type: cell-based
setupConditions: Homo sapiens, SK-N-AS, SK-N-AS (brain, neuroblastoma); read-out: ABS_IC50_VALUE
pIC50: −log10 of the molar value.

{"lineNotation": "O=c1[nH]ccc2cc(F)c(NS(=O)(=O)c3ccc(N4CC[C@@H](O)C4)s3)cc12", "measuredOn": "panel of human cell lines", "pIC50": "< 4.70"}

###

Test system: panel of human cell lines
protocolDescription: In vitro proliferation assay, Cell Titer Glo, two doubling times, 298 cell lines
Type: cell-based
setupConditions: Homo sapiens, BCP-1, BCP-1, haematopoietic and lymphoid tissue; read-out: ABS_IC50_VALUE
measurementKind: IC50 (µM)

{"compound": "O=c1[nH]ccc2cc(F)c(NS(=O)(=O)c3ccc(N4CC[C@@H](O)C4)s3)cc12 [LSN3213128]", "endpointResult": 11.1}

###

Test system: panel of human cell lines
protocolDescription: In vitro proliferation assay, Cell Titer Glo, two doubling times, 298 cell lines
Assay type: cell-based
setupConditions: Homo sapiens, ACHN, kidney; read-out: ABS_IC50_VALUE
Experimental: Cell Titer Glo measures ATP, thus the IC50s represent both the effect on purine production and cell proliferation, which are related. […] Cells were cultured using recommended culture conditions unless noted otherwise (Supplemental Table 3). Cells were plated, dosed with compound and incubated at 37 °C for approximately 2 doubling times as determined for each cell line. […]

{"lineNotation": "O=c1[nH]ccc2cc(F)c(NS(=O)(=O)c3ccc(N4CC[C@@H](O)C4)s3)cc12", "IC50 (nM)": 1940}

###

Test system: panel of human cell lines
protocolDescription: In vitro proliferation assay, Cell Titer Glo, two doubling times, 298 cell lines
Type: cell-based
setupConditions: Homo sapiens, SK-LU-1, SK-LU-1 (lung, adenocarcinoma); read-out: ABS_IC50_VALUE
pIC50: −log10 of the molar value.

{"lineNotation": "O=c1[nH]ccc2cc(F)c(NS(=O)(=O)c3ccc(N4CC[C@@H](O)C4)s3)cc12", "measuredOn": "panel of human cell lines", "pIC50": "< 4.70"}

Source listed as paper PMC6193938.
